Measured koff accompanies every entry in the list below.
Molecular target: Man9-V3 glycopeptide
Experiment: biolayer interferometry, biotinylated Man9-V3 on streptavidin sensors, antibody in solution, global fit to the bivalent avidity model
Your answer is read as s⁻¹, so omit the unit and give the number.

DH270.3 (antibody, V domains shown) VH: QVQLVQSGAEMKNPGASVKVSCAASGYTFTDFYIHWVRLAPGQGLEWMGWMNPKTGRTNNAQNFQGRVIMTRDTSIGTAYMELRRLTSDDTAVYYCVTGGWISPYYDSSYYPNFDHWGQGTLVTVSS VL: QSALTQPASVSGSPGQSITISCTGTSYDVGKFDLVSWYQQHPGKAPKYMIYEVNKWPSGVSHRFSGSKSGNTASLTISGLQAEDEADYYCCSFGGSATVVCGGGTKVTVL
0.000778

Task: Given the entry DH270.6 (antibody, V domains shown) VH: QVQLVQSGAQMKNPGASVKVSCAPSGYTFTDFYIHWLRQAPGQGLQWMGWMNPQTGRTNTARNFQGRVIMTRDTSIGTAYMELRSLTSDDTAIYYCTTGGWISLYYDSSYYPNFDHWGQGTLLTVSS VL: TSLLTQPASVSGSPGQSITISCTGTKYDVGSHDLVSWYQQYPGKVPKYMIYEVNKRPSGVSNRFSGSKSGNTASLTISGLRAEDEADYYCCSFGGSATVVCGGGTKVTVL , report its measured koff.
Output: 0.00037

Task: Given the entry DH270.4 (antibody, V domains shown) VH: EVQLVQSGAEMKNPGASVKVSCAASGYGFTDFYIHWVRLAPGHGLQWMGWMNPKTGRTNNAQDFQGRVILTRDTSIGTAYMELRRLTSDDTAVYYCVTGGWISPYYDSSYYPNFDHWGQGTLITVSS VL: QSALTQPASVSGSPGQSITISCTGTSYDVAKFDLVSWFQQHPGKAPKYMIYEVNKWPSGVSHRFSGSKSGNTASLTISGLQAEDEADYYCCSFGGSATVVCGGGTKVTVL , report its measured koff.
Output: 0.00052
